Origin of values: PubChem BioAssay (NCI)

- System: IGROV1 ovarian
- experimentDescription: NCI tumour cell line growth inhibition, 48 h
Listing of entries alongside the reported TGI.

Below: 8 compounds and their reported TGI.
Return the recorded TGI value; entry: Cc1[nH]c2nccn2c(=O)c1CCO
> 10 µM

Return the recorded TGI value; entry: CC(=O)CC(=O)Nc1ccccc1C(F)(F)F
> 100 µM

Return the recorded TGI value; entry: CCOC(=O)N1CCC2(CC1)C[C@@](C(C)=O)(c1ccccc1)C(C)O2 (stereo not given in full)
> 100 µM

Return the recorded TGI value; entry: O=C(CI)Nc1ccc(Br)cc1
4.88 µM

Return the recorded TGI value; entry: COc1ccc2[nH]c3c(c2c1)CC(=O)N1CCC[C@H](C1)CC31OCCCO1
> 100 µM

Return the recorded TGI value; entry: COc1ccc(-c2[nH]ncc2Nc2cc(OC)c(OC)c(OC)c2)cc1
> 100 µM

Return the recorded TGI value; entry: CCOS(=O)(=O)c1ccc(-c2c3nc(c(-c4ccc(S(=O)(=O)OCC)cc4)c4ccc([nH]4)c(-c4ccc(S(=O)(=O)OCC)cc4)c4nc(c(-c5ccc(S(=O)(=O)OCC)cc5)c5ccc2[nH]5)C=C4)C=C3)cc1
> 100 µM

Return the recorded TGI value; entry: Cc1cc(C)c2c(n1)S(=O)(=O)N(CCCN1CCN(c3cccc(Cl)c3)CC1)/C(=C(\O)c1ccc(Br)cc1)C2=O
> 100 µM

Now for a further compound.
Return the recorded TGI value; entry: Cc1ccc(NC(=O)C2C3CCC(O3)C2C(=O)O)cc1 (stereo not given)
> 100 µM
